- Tested on: human HeLa tumoral line
- assay-method-text: Antiproliferative effect / cytotoxicity on HeLa cells (Cell Titer 96 Aqueous One Solution)
- Type: cell-based
- measurement-conditions: HeLa cells in the presence of compound for 24 hours
pIC50: −log10 of the molar value.

- smiles-repr: "CCCNCc1ccc2nc3ccc4cc5cc(CNCCC)ccc5nc4c3cc2c1"
  target: "human HeLa tumoral line"
  pIC50: 6.30
